Assay Explanation: qHTS assay to identify small molecule agonists of the estrogen receptor alpha (ER-alpha) signaling pathway in the presence of an antagonist - cell viability counter screen (AID 1259386);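 also: cells exposed to compounds for 22 h at 37 °C before the viability read; nearly all actives have a fitted effect of over 30% in size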
Experimental Context: VM7Luc4E2 viability, CellTiter-Fluor fluorescence, 22 h; series mostly up to 92.4 µM
Records with an inconclusive call do not appear. The source made the active and inactive calls. Calls follow the shape of the dose curve; as a rule, active = well fitted cell-killing curve with a large enough effect in the repeat runs; inconclusive = weak or mixed curves, or effect the other way; inactive = no such curve, though single readings can be large or run the other way.
Would you mind answering with one of these outcomes? active, inactive

Solved entries (count: 4):
Given OC(CCl)CCl , state the outcome it received in this test. inactive

Assay result, entry CCCCc1oc2ccccc2c1C(=O)c1cc(I)c(OCCN(CC)CC)c(I)c1 — outcome? inactive

Recorded test call requested for O=C(O)c1ccccc1Nc1cccc(C(F)(F)F)c1 inactive

Assay outcome for CCCC(=O)O : what was it? inactive

More entries:
Call for entry Nc1ncnc2nc[nH]c12 : inactive

Name the outcome recorded for COc1ccc(C(=O)CC(=O)c2ccc(C(C)(C)C)cc2)cc1 in the assay. inactive

So what was the verdict on NNc1ccc(C(=O)O)cc1 in this test? inactive

Which outcome was assigned to c1ccc2sc(SSN3CCOCC3)nc2c1 in this test? inactive

Hello, I am checking results. What call was entered for CCOCCOCCO ? inactive

What did this assay record as the result for Nc1ccccc1N ? active

What was the test verdict on CCCCC(CC)COC(=O)c1ccc(N(C)C)cc1 (stereo unspecified) ? inactive

----------
Assay Explanation: qHTS assay for small molecule disruptors of the mitochondrial membrane potential - cell viability (AID 720634); also: nearly all actives have a fitted effect of over 20% in size
Experimental Context: HepG2 viability, ATP luminescence (CellTiter-Glo), 1 h; series mostly up to 83.2 µM
Records with an inconclusive call do not appear. Active and inactive are the calls of the source. The call rests on the fitted dose curve.
API: response.call in y (active), n (inactive)

Observe how each entry below is paired with its result.
Name the outcome recorded for CC(C)=CCCC(C)CCO (stereo not given) in the assay. n

Each compound tested received a call. Report the one for Cc1cccc(N(C)C(=S)Oc2ccc3ccccc3c2)c1 . y

Assay outcome for c1ccncc1 : what was it? n

Further cases:
Could you kindly confirm the outcome this assay logged for CCCc1c(OCCCCc2nn[nH]n2)ccc(C(C)=O)c1O ? n

Which outcome did this test record for the compound Cn1cnc([N+](=O)[O-])c1Sc1ncnc2nc[nH]c12 ? n

For this compound, state the assay outcome: c1ccc2cc(Nc3ccc(Nc4ccc5ccccc5c4)cc3)ccc2c1 n

Call for entry COC(C)COC(C)COC(C)CO (stereo not given) : n

For CCC(C)CO (stereo not given) , what call appears in the results of this test? n

Just curious, what result did CCOCCOCCO get here? n

Field: outcome | Entry: CN(C)C(=N)N=C(N)N n

For O=C(OCc1ccccc1)c1ccccc1O , which call appears in the assay record? n

Hi, do you know how O=C(c1ccccc1)c1ccccc1O came out in this test? n

Name the outcome recorded for Cc1cccc(C(=O)O)c1 in the assay. n

Recorded test call requested for CC(=O)Oc1ccccc1C(=O)Nc1ncc([N+](=O)[O-])s1 y

State the result this test recorded for COc1c(Cl)c(Cl)c(Cl)c(Cl)c1Cl . n

----------
Assay Explanation: A CellTox Green Cytotoxicity Assay to monitor cytotoxicity in HEK293 cells - 32 hour (AID 1224881); also: nearly all actives have a fitted effect of over 40% in size
Experimental Context: CellTox Green fluorescence; series mostly up to 76.8 µM
Results filed as inconclusive are left out. Activity calls are given as the source filed them. The call rests on the fitted dose curve; in most records, active means well fitted activation curve with a large enough effect in the repeat runs; inconclusive means weak or mixed curves; inactive means flat fitted curve, though single readings scatter.
Output constraint: value belongs to yes = active, no = inactive

Hi team, can someone confirm the assay call for COc1cccc2c1C(=O)c1c(O)c3c(c(O)c1C2=O)C[C@@](O)(C(=O)CO)C[C@@H]3O[C@H]1C[C@H](N)[C@H](O)[C@H](C)O1 ? no

Which outcome did this test record for the molecule Brc1cc(Oc2cc(Br)c(Br)c(Br)c2Br)c(Br)c(Br)c1Br ? no

Assay outcome for O=Cc1ccccc1O : what was it? no

Dear all, I need the recorded test outcome for O=CCCCC=O , thank you. no

Tell me the recorded outcome of this test for COc1ccccc1/C=C/C=O . no

Any idea what this test logged for CCCCC/C=C/C=C/C=O ? yes

Tell me the recorded outcome of this test for S=C(NC1CCCCC1)NC1CCCCC1 . no

Please look at the following molecule next.
In this assay, the call recorded for COC(C)COC(C)COC(C)CO (stereo not drawn) was what? no

Origin of values: PubChem BioAssay (Tox21)
